- target: T1, HIS-tagged human CD73 (huCD73-HIS) (human, UniProt P21589 27-547)
- T1 sequence: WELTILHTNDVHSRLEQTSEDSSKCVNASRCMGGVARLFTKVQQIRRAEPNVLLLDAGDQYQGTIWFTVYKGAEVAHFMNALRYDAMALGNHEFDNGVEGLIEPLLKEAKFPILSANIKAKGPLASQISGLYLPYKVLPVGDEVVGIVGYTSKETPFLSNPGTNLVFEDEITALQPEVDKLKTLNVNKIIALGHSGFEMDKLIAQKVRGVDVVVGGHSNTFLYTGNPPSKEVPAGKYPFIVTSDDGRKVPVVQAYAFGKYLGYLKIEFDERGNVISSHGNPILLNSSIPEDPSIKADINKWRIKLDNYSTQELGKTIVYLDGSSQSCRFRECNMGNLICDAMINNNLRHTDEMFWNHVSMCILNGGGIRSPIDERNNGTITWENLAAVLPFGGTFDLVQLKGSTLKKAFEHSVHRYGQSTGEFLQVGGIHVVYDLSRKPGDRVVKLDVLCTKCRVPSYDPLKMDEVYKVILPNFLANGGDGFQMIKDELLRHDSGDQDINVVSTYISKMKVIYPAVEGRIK
- test-summary: cell-based or functional assay
attribute-measured: IC50 (nM), huCD73 enzymatic assay in solution

# binder, units-text, test-value
rows = [
    ("60A9-H3L3 (antibody, V domains shown) VH: EVQLVESGGGLVQPGQSLKLSCKASGYAFSSYWMNWVRQAPGKGLEWIGQIYPGDGDTYYNPSVKGRATLSADKSKNTAYLQLNNLRAEDTAVYYCAREAIYYGNYVFTYWGQGTLVTVSS VL: DIQMTQSPSLLSASLGDRVTITCKSSQSLLNSSNQKNYLAWYQQKPGQSPKLLVYFASTRDSGVPDRFSGSGSGTDFTLTISSLEPEDFATYYCQQHYSTPLTFGGGTKLEIK", "nM", 2.09),
    ("60A9-H2L1 (antibody, V domains shown) VH: EVQLVESGGGLVQPGGSLRLSCKASGYAFSSYWMNWVRQAPGKGLEWVGQIYPGDGDTYYNPSVKGRFTISADTSKNTLYLQMNSLRAEDTAVYYCAREAIYYGNYVFTYWGQGTLVTVSS VL: DIQMTQSPSLLSASLGDRVTITCKSSQSLLNSSNQKNYLAWYQQKPGQSPKLLIYFASTRDSGVPDRFSGSGSGTDFTLTISSLEPEDFATYYCQQHYSTPLTFGGGTKLEIK", "nM", 4.13),
    ("60A9-H1L3 (antibody, V domains shown) VH: EVQLVESGGGLVQPGQSLKLSCKASGYAFSSYWMNWVRQAPGKGLEWMGQIYPGDGDTYYNPSVKGRFTISADTSKNTAYLQLNNLRAEDTAVYYCAREAIYYGNYVFTYWGQGTLVTVSS VL: DIQMTQSPSLLSASLGDRVTITCKSSQSLLNSSNQKNYLAWYQQKPGQSPKLLVYFASTRDSGVPDRFSGSGSGTDFTLTISSLEPEDFATYYCQQHYSTPLTFGGGTKLEIK", "nM", 4.96),
]
